Below, each entry is listed with its recorded koff.
System Name: T1, TauC3 (C-terminally truncated tau fragment ending at aspartate 421 of htau40) (human, UniProt P10636 1-738)
T1 construct: Generated and purified by Genscript; also called Human TauC3; recombinant TauC3 protein
T1 sequence (P10636 other isoform, or with tags, fused parts or gaps): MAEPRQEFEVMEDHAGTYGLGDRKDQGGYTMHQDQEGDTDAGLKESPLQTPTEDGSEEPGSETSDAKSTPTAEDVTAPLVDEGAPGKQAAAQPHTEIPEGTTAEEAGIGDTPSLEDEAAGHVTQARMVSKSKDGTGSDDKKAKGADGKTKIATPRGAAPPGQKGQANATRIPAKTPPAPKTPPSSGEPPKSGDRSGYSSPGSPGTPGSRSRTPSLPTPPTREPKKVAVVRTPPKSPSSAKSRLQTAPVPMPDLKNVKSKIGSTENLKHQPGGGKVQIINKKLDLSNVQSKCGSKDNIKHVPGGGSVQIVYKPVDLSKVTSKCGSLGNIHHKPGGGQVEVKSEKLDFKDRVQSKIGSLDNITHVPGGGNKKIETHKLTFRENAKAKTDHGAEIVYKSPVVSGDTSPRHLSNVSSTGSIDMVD
Method: Biacore off-rate ranking, TauC3 amine-coupled on CM5, one antibody concentration; one-phase exponential decay fit
Output spec: scalar in s⁻¹, unitless text.

Some binders with known koff results, for comparison:
Binder: Tau01 HCKB HuG4K (antibody, V domains shown, human IgG4 kappa (HuG4K)) VH: LVQLVESGGGLVQPGGSLKLSCAASGFTFNTYAMNWVRQASGKGLEWVGRIRSKSNNYATYYAASVKGRFTISRDDSKSMAYLQMDSLKTEDTAVYYCVGGGDFWGQGTLVTVSS VL: DIQMTQSPSSLSASVGDRVTITCRASQEISVYLSWFQQKPGKAIKRLIYGAFTLQSGVPSRFSGSRSGSEYTLTISSLQPEDFATYYCLQYVRYPWTFGGGTKVEIK
koff / s⁻¹: 0.0114
--
Binder: Tau01 HMKB (antibody, V domains shown, human IgG4 kappa (HuG4K)) VH: LVQLVESGGGLVQPGGSLKLSCAASGFTFNTYAMNWVRQASGKGLEWVARIRSKSNNYATYYAASVKGRFTISRDDSKSMAYLQMDSLKTEDTAVYYCVGGGDFWGQGTLVTVSS VL: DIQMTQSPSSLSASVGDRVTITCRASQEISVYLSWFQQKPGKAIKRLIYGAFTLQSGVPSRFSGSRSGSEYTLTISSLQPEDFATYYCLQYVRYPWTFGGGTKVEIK
koff / s⁻¹: 0.00062

Now for another entry.
Prompt line: Name the reported koff value associated with the binder Tau01 HMKC (antibody, V domains shown, human IgG4 kappa (HuG4K)) VH: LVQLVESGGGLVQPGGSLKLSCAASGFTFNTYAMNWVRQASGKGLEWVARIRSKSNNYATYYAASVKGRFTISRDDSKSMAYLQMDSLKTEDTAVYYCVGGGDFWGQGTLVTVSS VL: DIQMTQSPSSLSASVGDRVTITCRASQEISVYLSWFQQKPGKAPKRLIYGAFKLQSGVPSRFSGSRSGTEYTLTISSLQPEDFATYYCLQYVRYPWTFGGGTKVEIK
Response line: 0.000843
